Test Target: HSD17B13 (Homo sapiens (Human))
Sequence (Q7Z5P4 other isoform, or with tags, fused parts or gaps): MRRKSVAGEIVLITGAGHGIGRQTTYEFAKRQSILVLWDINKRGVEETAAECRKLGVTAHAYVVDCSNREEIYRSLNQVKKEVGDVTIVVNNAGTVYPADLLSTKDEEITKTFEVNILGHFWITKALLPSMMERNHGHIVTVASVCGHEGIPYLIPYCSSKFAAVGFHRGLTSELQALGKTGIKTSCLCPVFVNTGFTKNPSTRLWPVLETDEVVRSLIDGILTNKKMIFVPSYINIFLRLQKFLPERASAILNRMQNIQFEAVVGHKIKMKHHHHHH
Experiment Summary: HSD17B13 enzymatic inhibition assay (150 nM or 50 nM HSD17B13)
Assay type: biochemical
Run Conditions: 50 nM HSD17B13; read-out: Inhibition of 50 nM of HSD17B13 IC50
Reported Endpoint: IC50

> print(dat)
                                   molecule      val
1  O=C(NC1CCOc2cccnc21)c1ccc(C(F)(F)F)[nH]c1=O (stereo not drawn)  > 10 µM
2  O=C(NC(c1ccccc1)c1ccc2c(c1)CCNC2)c1ccc(C(F)(F)F)[nH]c1=O (stereo not drawn)  > 10 µM

We next turn to a different molecule, shown below.
QUERY: Form field: IC50 recorded for Cc1ccc(C(C(=O)Nc2ccc(C(F)(F)F)[nH]c2=O)c2ccc(C)cc2)cc1 with HSD17B13 (Homo sapiens (Human)) (enter value)
RESULT: > 10 µM
